src = patent US9416128B2

Entries and their inhibition at 3 µM
targetOfAssay: wild-type human cardiac sodium channel, hNaV 1.5 (Peak INa) (Homo sapiens, UniProt Q14524)
Sequence (Q14524 whole entry): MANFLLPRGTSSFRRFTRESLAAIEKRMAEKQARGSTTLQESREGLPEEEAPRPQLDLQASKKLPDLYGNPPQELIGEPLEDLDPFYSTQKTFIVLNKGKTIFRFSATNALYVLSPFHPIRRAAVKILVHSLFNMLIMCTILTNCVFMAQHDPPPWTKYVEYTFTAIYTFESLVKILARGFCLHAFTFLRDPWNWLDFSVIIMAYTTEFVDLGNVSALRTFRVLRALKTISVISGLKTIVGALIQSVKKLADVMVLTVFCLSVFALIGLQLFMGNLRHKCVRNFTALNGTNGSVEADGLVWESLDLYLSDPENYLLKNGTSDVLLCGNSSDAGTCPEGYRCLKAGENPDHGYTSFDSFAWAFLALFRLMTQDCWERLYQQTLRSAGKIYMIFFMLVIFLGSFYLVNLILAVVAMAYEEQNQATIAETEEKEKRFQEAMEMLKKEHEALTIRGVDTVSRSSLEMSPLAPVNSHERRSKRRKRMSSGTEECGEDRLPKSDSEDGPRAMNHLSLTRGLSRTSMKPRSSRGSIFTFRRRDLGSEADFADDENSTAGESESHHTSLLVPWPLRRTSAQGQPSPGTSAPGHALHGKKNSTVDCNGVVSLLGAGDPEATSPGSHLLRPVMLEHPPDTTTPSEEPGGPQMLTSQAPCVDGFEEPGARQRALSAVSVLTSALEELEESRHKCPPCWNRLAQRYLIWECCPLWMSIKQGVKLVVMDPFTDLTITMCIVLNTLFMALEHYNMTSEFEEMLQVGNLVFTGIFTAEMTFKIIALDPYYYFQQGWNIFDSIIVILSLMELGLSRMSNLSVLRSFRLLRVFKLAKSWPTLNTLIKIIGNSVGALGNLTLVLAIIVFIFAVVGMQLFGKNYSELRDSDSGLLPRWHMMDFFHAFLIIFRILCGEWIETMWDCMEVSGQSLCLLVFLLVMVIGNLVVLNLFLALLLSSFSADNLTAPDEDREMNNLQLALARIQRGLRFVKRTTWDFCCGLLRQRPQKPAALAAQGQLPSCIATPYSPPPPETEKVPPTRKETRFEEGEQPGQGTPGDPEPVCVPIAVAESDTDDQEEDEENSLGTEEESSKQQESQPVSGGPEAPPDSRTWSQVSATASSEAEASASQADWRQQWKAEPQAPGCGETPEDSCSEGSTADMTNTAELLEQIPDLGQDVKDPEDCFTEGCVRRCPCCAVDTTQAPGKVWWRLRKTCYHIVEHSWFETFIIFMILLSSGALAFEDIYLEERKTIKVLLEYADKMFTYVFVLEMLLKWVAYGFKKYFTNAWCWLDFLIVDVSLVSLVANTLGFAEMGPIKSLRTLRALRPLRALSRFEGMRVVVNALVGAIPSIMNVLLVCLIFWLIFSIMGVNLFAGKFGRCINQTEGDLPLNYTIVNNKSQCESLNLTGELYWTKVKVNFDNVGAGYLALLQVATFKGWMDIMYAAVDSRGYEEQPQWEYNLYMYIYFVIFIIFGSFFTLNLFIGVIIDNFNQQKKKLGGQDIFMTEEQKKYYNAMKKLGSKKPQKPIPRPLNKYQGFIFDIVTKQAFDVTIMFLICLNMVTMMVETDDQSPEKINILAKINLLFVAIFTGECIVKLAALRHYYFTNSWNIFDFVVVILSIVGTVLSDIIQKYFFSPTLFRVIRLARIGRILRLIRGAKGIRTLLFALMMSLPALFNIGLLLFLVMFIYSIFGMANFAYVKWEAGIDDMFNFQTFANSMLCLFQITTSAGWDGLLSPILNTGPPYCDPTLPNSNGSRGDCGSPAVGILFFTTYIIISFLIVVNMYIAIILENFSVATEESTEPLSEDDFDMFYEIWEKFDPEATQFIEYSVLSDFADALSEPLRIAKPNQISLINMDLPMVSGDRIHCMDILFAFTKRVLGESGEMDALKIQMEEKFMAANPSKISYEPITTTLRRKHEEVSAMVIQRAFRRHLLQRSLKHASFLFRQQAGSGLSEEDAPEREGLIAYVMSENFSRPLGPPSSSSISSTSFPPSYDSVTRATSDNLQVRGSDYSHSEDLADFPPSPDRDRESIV
measurementNotes: Peak INa screening assay (tonic block and use-dependent block)
Assay type: cell-based
testConditions: read-out: Nav1.5 Peak TB 3 uM, % inhibition, tonic block of peak INa at 3 uM; 0.1 Hz; holding -100 mV
Protocol: The assay uses an HEK293 (human embryonic kidney) cell line heterologously expressing the wild-type human cardiac sodium channel, hNaV 1.5, purchased from Millipore (Billerica, Mass.). […] After establishing the whole cell recording configuration, channels were stimulated to open with low frequency (0.1 Hz) for so that the recording can be monitored and the extent to which the recording has stabilized can be assessed. […] Both TB and UDB were analyzed by incorporating rundown correction for the peak INa.
quantityMeasured: inhibition at 3 µM (%)

[[record]]
compound = "CC(C)Oc1cc(OC(F)(F)F)ccc1-c1ccc2c(c1)CN(Cc1ncccn1)C(=O)O2 [Example 39]"
valuemeasured = 17.5

[[record]]
compound = "O=C1Oc2ccc(-c3ccc(C(F)(F)F)cc3)cc2CN1CCc1ncccn1 [Example 17]"
valuemeasured = 12.9

[[record]]
compound = "Cc1ccnc(CN2Cc3cc(-c4ccc(OC(F)(F)F)cc4)ccc3OC2=O)n1 [Example 29]"
valuemeasured = 36.1

[[record]]
compound = "Cc1cnc(CN2Cc3cc(-c4ccc(C(F)(F)F)cc4C)ccc3OC2=O)nc1 [Example 43]"
valuemeasured = 19.2

[[record]]
compound = "COc1cc(OC(F)(F)F)ccc1-c1ccc2c(c1)CN(Cc1nccc(C)n1)C(=O)O2 [Example 31]"
valuemeasured = 12.2

[[record]]
compound = "Cc1cnc(CN2Cc3cc(-c4ccc(OC(F)(F)F)cc4F)ccc3OC2=O)nc1 [Example 14]"
valuemeasured = 24

[[record]]
compound = "Cc1cccc(CN2Cc3cc(-c4ccc(OC(F)(F)F)cc4F)ccc3OC2=O)n1 [Example 47]"
valuemeasured = 44.3

[[record]]
compound = "Cc1cc(-c2ccc3c(c2)CN(Cc2ncccn2)C(=O)O3)ccc1OC(F)(F)F [Example 5]"
valuemeasured = 10.1

[[record]]
compound = "Cc1cnc(CN2Cc3cc(-c4ccc(OC(F)(F)F)cc4)ccc3OC2=O)nc1 [Example 12]"
valuemeasured = 16.6

[[record]]
compound = "Cc1ccnc(CN2Cc3cc(-c4ccc(C(F)(F)F)cc4)ccc3OC2=O)n1 [Example 30]"
valuemeasured = 36.5

[[record]]
compound = "CCCOc1cc(C(F)(F)F)ccc1-c1ccc2c(c1)CN(Cc1ncccn1)C(=O)O2 [Example 27]"
valuemeasured = 32

[[record]]
compound = "O=C1Oc2ccc(-c3ccc(C(F)(F)F)cc3F)cc2CN1Cc1ncccn1 [Example 36]"
valuemeasured = 11.5

[[record]]
compound = "COc1cc(C(F)(F)F)ccc1-c1ccc2c(c1)CN(Cc1ncccn1)C(=O)O2 [Example 34]"
valuemeasured = 27.7

[[record]]
compound = "CCCOc1cc(C(F)(F)F)ccc1-c1ccc2c(c1)CN(CCc1ncccn1)C(=O)O2 [Example 19]"
valuemeasured = 26.7

[[record]]
compound = "O=C1Oc2ccc(-c3ccc(OC(F)(F)F)cc3)cc2CN1Cc1ccccn1 [Example 20]"
valuemeasured = 32.8

[[record]]
compound = "CCOc1cc(OC(F)(F)F)ccc1-c1ccc2c(c1)CN(Cc1ncccn1)C(=O)O2 [Example 40]"
valuemeasured = 22.4

[[record]]
compound = "COc1cc(OC(F)(F)F)ccc1-c1ccc2c(c1)CN(CCc1ncccn1)C(=O)O2 [Example 18]"
valuemeasured = 12.1

